# credit: patent US10160743B2

# System: HBV
# Experiment: Anti-HBV activity, HepG2.117 cell line (Tet-off), intracellular HBV DNA by realtime PCR
# Format: cell-based, Hepatitis B virus
# Condition set: Hepatitis B virus, HepG2.117, 72 h, HepG2.117 cells, 3 days of treatment
Listing of recorded log10 of EC50 by entry.
Could you please treat all values as log10 of EC50 in nM?

# count of solved cases: 2
Please report the measured log10 of EC50 for "Cc1cc(NC(=O)c2cc(S(=O)(=O)N[C@H]3CCOC3)cs2)ccc1F"
2.20

Indicate its recorded log10 of EC50; the compound in question is "Cc1cc(NC(=O)c2cc(S(=O)(=O)N[C@H]3CCOC3)sc2Br)ccc1F"
3.28

More entries:
Please indicate log10 of EC50 recorded for "Cc1cc(NC(=O)c2scc(S(=O)(=O)NC3(C)COC3)c2C)ccc1F"
2.28

Report log10 of EC50, nothing else, for this compound: "Cc1cc(NC(=O)c2cc(S(=O)(=O)N[C@H]3CCOC3)sc2C(F)(F)F)ccc1F"
3.07

Determine its reported log10 of EC50: "COC(=O)C(C)(C)NS(=O)(=O)c1cc(C(=O)Nc2ccc(F)c(C)c2)c(C)s1"
2.23

Tell me log10 of EC50 reported for "Cc1cc(NC(=O)c2cc(S(=O)(=O)NC3(C)COC3)c(C)s2)ccc1F"
2.75

Name the recorded log10 of EC50 of the item "Cc1sc(S(=O)(=O)NC(C)(C)C)cc1C(=O)Nc1ccc(F)c(F)c1" in your answer.
2.11

Give the reported value of log10 of EC50 for this record: "Cc1sc(S(=O)(=O)NC(C)(C)C(F)(F)F)cc1C(=O)Nc1ccc(F)c(F)c1"
2.28

---

EC50 by entry:
# Tested on: HBV
# Experiment: Anti-HBV activity, HepG2.117 cell line (Tet-off), intracellular HBV DNA by realtime PCR
# Format: cell-based, Hepatitis B virus
# Condition set: Hepatitis B virus, HepG2.117, 72 h, HepG2.117 cells, 3 days of treatment
// note: answer is a bare numeric in nM

Record excerpt, results attached:
Please give measured EC50 of the following entry: Cc1sc(S(=O)(=O)NC2(C)COC2)cc1C(=O)Nc1ccc(F)c(Cl)c1 [Compound 28]
41

Identify the reported EC50 for the following entry. COC(=O)C(C)(C)NS(=O)(=O)c1cc(C(=O)Nc2ccc(F)c(F)c2)c(C)s1 [Compound 30]
790

Note EC50 for the molecule shown: Cc1sc(S(=O)(=O)N[C@@H](C)C(F)(F)F)cc1C(=O)Nc1cc(F)c(F)c(Cl)c1 [Compound 37]
220

Identify EC50 associated with the molecule Cc1sc(S(=O)(=O)NC2(C(F)(F)F)CC2)cc1C(=O)Nc1ccc(F)c(C#N)c1 [Compound 53]
140

In one line, give reported EC50 of the entry Cc1cc(NC(=O)c2cc(S(=O)(=O)NC3(C)COC3)sc2C)ccc1F [Compound 15] .
160

# return recorded EC50 for input Cc1cc(NC(=O)c2csc(S(=O)(=O)N[C@H]3CCOC3)c2)ccc1F [Compound 1]
320

State, in one line, measured EC50 of Cc1sc(S(=O)(=O)NC2(C)COC2)cc1C(=O)Nc1cccc(C(F)(F)F)c1 [Compound 22]
230

Further cases:
Respond only with EC50 recorded for Cc1sc(S(=O)(=O)NC(C)(C)C(F)(F)F)cc1C(=O)Nc1cc(F)c(F)c(Cl)c1 [Compound 40]
500
